Target: … (Plasmodium falciparum)
Experiment: BLI, target on sensor
metric-name: Kd (nM)
Supply the numeric figure in nM, leaving out any unit text.

Solved cases (2 shown):
| binder | Kd (nM) |
| --- | --- |
| AB-007066 (antibody, V domains shown) VH: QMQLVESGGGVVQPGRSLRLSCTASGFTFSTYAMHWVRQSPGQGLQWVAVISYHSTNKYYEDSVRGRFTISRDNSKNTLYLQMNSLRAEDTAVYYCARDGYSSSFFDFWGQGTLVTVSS VL: DIQMTQSPSTLSASVGDRVAITCRASQSISRWLAWYQQQPGKAPKLLMSQASVLESGVPSRFSGSGSGTEFTLTISSLQPDDFATYYCQHYNSYFVTFGQGTKVEIK | 26.6 |
| AB-007038 (antibody, V domains shown) VH: QMQLVESGGGVVQPGRSLRLSCTASGFTFSTYAMHWVRQSPGQGLQWVAVISYHSTNKYYEDSVRGRFTISRDNSKNTLYLQMNSLRAEDTAVYYCARDGYSSSFFDYWGQGTLVTVSS VL: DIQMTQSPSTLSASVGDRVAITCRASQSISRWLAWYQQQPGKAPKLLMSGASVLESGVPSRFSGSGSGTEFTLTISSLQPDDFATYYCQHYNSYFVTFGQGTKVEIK | 3.81 |

Let's switch to this binder now.
// Kd lookup, binder = AB-007065 (antibody, V domains shown) VH: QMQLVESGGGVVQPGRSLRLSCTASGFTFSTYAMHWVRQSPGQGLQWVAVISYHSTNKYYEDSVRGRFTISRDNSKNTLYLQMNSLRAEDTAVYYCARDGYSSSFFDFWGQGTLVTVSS VL: DIQMTQSPSTLSASVGDRVAITCRASQSISRWLAWYQQQPGKAPKLLMSKASVLESGVPSRFSGSGSGTEFTLTISSLQPDDFATYYCQHYNSYFVTFGQGTKVEIK , result: 9.73
